Values were extracted from patent US9868692B2.

# protocol.description: Residual lipid level in liver of rats (UPLC-MS quantification)
# Assay type: in vivo
# measurement.setup: liver, 0.2 mg/kg; rat, intravenous, 0.2 mpk, 8 h

[
  {
    "smiles.repr": "CCCCCCCCCOC(=O)CCCCCCCN(CCO)CCCCCCCC(=O)OC(CCCCCCCC)CCCCCCCC",
    "endpoint.unit": "ng/g",
    "concentration at 8 h": 296
  }
]

---

concentration at 8 h reference
# protocol.description: Residual lipid level in spleen of rats (UPLC-MS quantification)
# Type: in vivo
# measurement.setup: rat, iv, 0.2 mg/kg, 0.2 mpk, 8 h
test.readout: concentration at 8 h (ng/g)

[
  {
    "molecule": "CCCCCCCCCCCOC(=O)CCCCCN(CCO)CCCCCCCC(=O)OC(CCCCCCCC)CCCCCCCC",
    "test.readout": "concentration at 8 h",
    "recorded.value": 10800
  },
  {
    "molecule": "CCCCCC=CCC=CCCCCCCCCC(CCCCCCCCC=CCC=CCCCCC)OC(=O)CCCN(C)C (centres unmarked) [MC3, reference compound]",
    "test.readout": "concentration at 8 h",
    "recorded.value": 21200
  }
]

---

# protocol.description: Residual lipid level in spleen of rats (UPLC-MS quantification)
# Assay type: in vivo
# measurement.setup: rat, iv, 0.2 mg/kg, 0.2 mpk, 48 h, read-out: Lipid level in spleen

[
  {
    "compound": "CCCCCC=CCC=CCCCCCCCCC(CCCCCCCCC=CCC=CCCCCC)OC(=O)CCCN(C)C (centres unmarked) [MC3, reference compound]",
    "concentration at 48 h, ng/g": 11600
  },
  {
    "compound": "CCCCCCCCCCCOC(=O)CCCCCN(CCO)CCCCCCCC(=O)OC(CCCCCCCC)CCCCCCCC",
    "concentration at 48 h, ng/g": 1550
  }
]

---

# protocol.description: Residual lipid level in spleen of rats (UPLC-MS quantification)
# Format: in vivo
# measurement.setup: 0.2 mg/kg, rat, intravenous, 0.2 mpk, 8 h
# Experimental: To pre-weighed tissues, Milli-Q water was added (900 μL water per 100 mg tissue). Tissues were homogenized using an Omni probe homogenizer until uniform. 50 μL of samples and matrix calibration standards were aliquoted into a 96-well plate. […] The expression of hEPO in rats intravenously administered a nanoparticle composition at a dose of 0.2 mpk or 2.0 mpk was measured at 6 hours. […] Liver and spleen levels represent the average values calculated for 3 rats in each group. […]

[
  {
    "molecule": "CCCCCCCCCOC(=O)CCCCCCCN(CCO)CCCCCCCC(=O)OC(CCCCCCCC)CCCCCCCC [Compound 18]",
    "endpoint.unit": "ng/g",
    "concentration at 8 h": 1340
  }
]

---

# protocol.description: Residual lipid level in liver of rats (UPLC-MS quantification)
# Assay type: in vivo
# measurement.setup: liver, 0.2 mg/kg; rat, intravenous, 0.2 mpk, 4 h

[
  {
    "smiles.repr": "CCCCCCCCCOC(=O)CCCCCCCN(CCO)CCCCCCCC(=O)OC(CCCCCCCC)CCCCCCCC",
    "endpoint.unit": "ng/g",
    "concentration at 4 h": 839
  }
]

---

# protocol.description: Residual lipid level in spleen of rats (UPLC-MS quantification)
# Type: in vivo
# measurement.setup: 0.2 mg/kg, rat, intravenous, 0.2 mpk, 0.5 h

[
  {
    "smiles.repr": "CCCCCCCCCOC(=O)CCCCCCCN(CCO)CCCCCCCC(=O)OC(CCCCCCCC)CCCCCCCC",
    "concentration at 0.5 h (ng/g)": 2020
  }
]

---

# protocol.description: Particle size, polydispersity index (and zeta potential) of nanoparticle compositions, Zetasizer Nano ZS
# Assay type: physicochemical
# measurement.setup: Table 1A formulations
Answer 0.0 if PDI is under 0.1, and 1.0 if it is 0.1 or more.

[
  {
    "compound": "CCCCCCCCCOC(=O)CCCCCCCN(CCCCCCCC(=O)OC(CCCCCCCC)CCCCCCCC)CCCNc1c(N(C)C)c(=O)c1=O [Compound 169]",
    "class.label": 1.0
  },
  {
    "compound": "CCCC/C=C\\CCC(CC/C=C\\CCCC)OC(=O)CCCCCCCN(CCO)CCCCCC(=O)OCCCCCCCCCCC [Compound 61]",
    "class.label": 1.0
  },
  {
    "compound": "CCCCCCCCC(CCCCCCCC)OC(=O)CCCCCCCN(CCO)CCCCCC(=O)OC(CCCCCCCC)C1CC1 (stereo not shown) [Compound 128]",
    "class.label": 1.0
  },
  {
    "compound": "CCCCCCCCCOC(=O)CCCCCCCN(CCCCCCCC(=O)OC(CCCCCCCC)CCCCCCCC)C(CO)CO [Compound 156]",
    "class.label": 0.0
  },
  {
    "compound": "CCCCCCCCCOC(=O)CCCCCCCN(CCO)CCCCCCC(=O)OCC(CCCCCCCC)CCCCCCCC [Compound 143]",
    "class.label": 1.0
  },
  {
    "compound": "CCCCCCCCCOC(=O)CCCCCCCN(CCCCCCCC(=O)OC(CCCCCCCC)CCCCCCCC)CCCOC(=O)NC [Compound 175]",
    "class.label": 1.0
  }
]
